// data source = patent US20220324835A1

Record: Kd reported on Cbl-b (residues 36-427) (Homo sapiens).
Sequence (Q13191 36-427): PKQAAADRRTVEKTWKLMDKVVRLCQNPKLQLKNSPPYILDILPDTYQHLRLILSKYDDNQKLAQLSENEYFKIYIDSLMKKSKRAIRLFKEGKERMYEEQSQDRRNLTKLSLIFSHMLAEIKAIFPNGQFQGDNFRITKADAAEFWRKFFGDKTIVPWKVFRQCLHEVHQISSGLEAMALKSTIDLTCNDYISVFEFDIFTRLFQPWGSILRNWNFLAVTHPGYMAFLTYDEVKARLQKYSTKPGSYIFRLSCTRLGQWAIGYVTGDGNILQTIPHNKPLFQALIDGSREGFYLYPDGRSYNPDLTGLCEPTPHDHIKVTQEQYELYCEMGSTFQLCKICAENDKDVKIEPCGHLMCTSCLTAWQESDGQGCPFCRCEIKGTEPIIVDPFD

# MOLECULE, Kd
data = [
    ("C[C@H](Sc1nncn1C)c1cccc(NC(=O)c2cc3c(Cl)cccc3[nH]2)c1 [Compound 78]", "100 to 300 nM"),
    ("C[C@H](Cc1nncn1C)c1cccc(NC(=O)c2cc(C(=O)N3CCC(CO)C3)ccn2)c1 (stereo partly shown) [Compound 245]", "3000 to 10000 nM"),
    ("C[C@@H](Sc1nncn1C)c1ccc(F)c(NC(=O)c2cccc(C(F)(F)F)n2)c1 [Compound 95b]", "> 10000 nM"),
    ("Cn1cnnc1[C@H](F)C(C)(F)c1cccc(N2Cc3c(cccc3C(F)(F)F)C2=O)c1 (stereo in doubt) [Compound 479]", "100 to 300 nM"),
    ("C[C@H](Cc1nncn1C)c1cccc(NC(=O)c2cc(C(=O)N3C[C@@H](O)C[C@H]3C)ccn2)c1 [Compound 224]", "301 to 1000 nM"),
]

## Task Which Kd reading was recorded for the molecule C[C@H](Cc1nncn1C)c1cccc(NC(=O)c2cc(C(=O)N3CC(O)C(C)(C)C3)ccn2)c1 (stereo partly shown) [Compound 239] ?
## Result 100 to 300 nM

## Task What about this molecule? CNC(=O)COc1cccc2nc(C(=O)Nc3cccc([C@H](C)Sc4nncn4C)c3)ccc12 [Compound 310]
## Result 301 to 1000 nM

* * *

# TGT: Cbl-b (Homo sapiens, UniProt Q13191)
# Sequence (Q13191 36-427): as above
# PROCEDURE_DETAILS: Cbl-b activity assay (Cbl-b inhibition assay), TR-FRET of Cbl-b interaction with UbcH5B-Ub
# Assay type: biochemical
# MEASUREMENT_CONDITIONS: assay buffer with 100 mM NaCl, 60 nM Src kinase; read-out: Cbl-b activity IC50
Below, each entry is listed with its recorded IC50.

Solved entries (count: 5):
# MOLECULE, RESULT
data = [
    ("C[C@H](Sc1nncn1C)c1cccc(NC(=O)c2cccc(-c3ccn[nH]3)c2)c1", "3000 to 10000 nM"),
    ("Cc1conc1CC(C)c1cccc(N2Cc3c(cccc3C(F)(F)F)C2=O)c1 (centres unmarked)", "301 to 1000 nM"),
    ("C[C@H](Cc1nncn1C)c1cc(N[C@@H](C)CO)nc(N2Cc3c(cccc3C(F)(F)F)C2=O)c1", "100 to 300 nM"),
    ("C[C@H](c1cc2c(c(C(F)(F)F)c1)CN(c1cccc(C3(Cc4nncn4C)COC3)c1)C2=O)N1CC(F)C1 [Example 668a]", "< 100 nM"),
    ("C[C@H](Sc1nncn1C)c1ccnc(NC(=O)c2ccc3cccc(F)c3n2)c1", "1000 to 3000 nM"),
]

## Task Which IC50 reading was recorded for the molecule Cn1cnnc1CC1(c2cccc(N3Cc4c(cccc4C(F)(F)F)C3=O)c2)CC1 ?
## Result < 100 nM

## Task What about this molecule? C[C@H](Cc1nncn1C)c1cccc(N2Cc3c(ccnc3C3CCC3)C2=O)c1
## Result 100 to 300 nM

## Task What about this molecule? COc1cc(C(F)(F)F)cc(C(=O)Nc2cccc([C@H](C)Sc3nncn3C)c2)n1
## Result 1000 to 3000 nM

* * *

# System: primary human NK cells
# PROCEDURE_DETAILS: NK cell activation assessed by cytokine secretion (coculture with K562 NucRed target cells)
# Assay type: cell-based
# MEASUREMENT_CONDITIONS: K562, 5:1 E/T, 10 μM, read-out: IFNγ secretion
ENDPOINT_LABEL: fold induction at 10 µM

# STRUCTURE_SMILES_STRING, ENDPOINT_LABEL, RESULT
data = [
    ("Cn1cnnc1C(F)(F)[C@](C)(F)c1cccc(N2Cc3c(cc(CN4CCC(F)(F)C4)cc3C(F)(F)F)C2=O)c1", "fold induction at 10 µM", "> 5"),
    ("Cn1cnnc1C(F)(F)[C@](C)(F)c1cccc(N2Cc3c(cc(C(=O)N4CC[C@H](O)C4)cc3C(F)(F)F)C2=O)c1", "fold induction at 10 µM", "1.01 to 2"),
    ("Cn1cnnc1C(F)(F)[C@](C)(F)c1cccc(N2Cc3c(cc(CN4CC[C@H](F)C4)cc3C(F)(F)F)C2=O)c1", "fold induction at 10 µM", "> 5"),
]

Now consider the entry below.
## Task Which fold induction at 10 µM reading was recorded for the compound C[C@H](Cc1nncn1C)c1cccc(NC(=O)c2cc(C3CC3)cc(C(F)(F)F)n2)c1 ?
## Result > 5
